experiment: Chemical stability in pharmaceutical solvents (weight % remaining in solution, LCMS); format: physicochemical; conditions: H2O (pH = 2), 4 hours
MEASURED_PARAMETER: weight percentage that remained in solution (% w/w)

>>> assay_value("C[N+](C)(C)CCOP(=O)([O-])OC(Cn1cncn1)(Cn1cncn1)c1ccc(F)cc1F")
99.9
>>> assay_value("CCCCCCCCCC(=O)OCCOP(=O)([O-])OC(Cn1cncn1)(Cn1cncn1)c1ccc(F)cc1F.[Na+]")
97.8
>>> assay_value("CCCCCCCCCOP(=O)([O-])OC(Cn1cncn1)(Cn1cncn1)c1ccc(F)cc1F.[Na+]")
99.0
>>> assay_value("CCCCCCCCCOCCOP(=O)([O-])OC(Cn1cncn1)(Cn1cncn1)c1ccc(F)cc1F.[Na+]")
94.8

###

assay: Chemical stability in pharmaceutical solvents (weight % remaining in solution, LCMS); format: physicochemical; details: H2O (pH = 10), 7 days
MEASURED_PARAMETER: weight percentage that remained in solution (% w/w)

Look over these answered cases.
>>> assay_value("CCCCCCCCCOCCOP(=O)([O-])OC(Cn1cncn1)(Cn1cncn1)c1ccc(F)cc1F.[Na+]")
95.0
>>> assay_value("C[N+](C)(C)CCOP(=O)([O-])OC(Cn1cncn1)(Cn1cncn1)c1ccc(F)cc1F")
100.0
>>> assay_value("CCCCCCCCCOP(=O)([O-])OC(Cn1cncn1)(Cn1cncn1)c1ccc(F)cc1F.[Na+]")
99.3

(A) CCCCCCCCCC(=O)OCCOP(=O)([O-])OC(Cn1cncn1)(Cn1cncn1)c1ccc(F)cc1F.[Na+]
(B) CCCCCCCCCC(=O)OCC(COP(=O)([O-])OC(Cn1cncn1)(Cn1cncn1)c1ccc(F)cc1F)OC(=O)CCCCCCCCC.[Na+] (centres unmarked)
Ask: Which of these two has the smaller recorded weight percentage that remained in solution: A or B ? Lab note: record the label of whichever item you select.
Result: B
(B: 39.4 % w/w, A: 96.8 % w/w)

###

experiment: Chemical stability in pharmaceutical solvents (weight % remaining in solution, LCMS); format: physicochemical; conditions: PEG 400, 4 hours
MEASURED_PARAMETER: weight percentage that remained in solution (% w/w)

>>> assay_value("CCCCCCCCCC(=O)OCCOP(=O)([O-])OC(Cn1cncn1)(Cn1cncn1)c1ccc(F)cc1F.[Na+]")
97.7
>>> assay_value("CCCCCCCCCOCCOP(=O)([O-])OC(Cn1cncn1)(Cn1cncn1)c1ccc(F)cc1F.[Na+]")
95.0
>>> assay_value("CCCCCCCCCOP(=O)([O-])OC(Cn1cncn1)(Cn1cncn1)c1ccc(F)cc1F.[Na+]")
99.3
>>> assay_value("CCCCCCCCCC(=O)OCC(COP(=O)([O-])OC(Cn1cncn1)(Cn1cncn1)c1ccc(F)cc1F)OC(=O)CCCCCCCCC.[Na+] (centres unmarked)")
96.8
>>> assay_value("C[N+](C)(C)CCOP(=O)([O-])OC(Cn1cncn1)(Cn1cncn1)c1ccc(F)cc1F")
99.8

###

assay: Chemical stability in pharmaceutical solvents (weight % remaining in solution, LCMS); format: physicochemical; conditions: H2O (pH = 2), 7 days
MEASURED_PARAMETER: weight percentage that remained in solution (% w/w)

>>> assay_value("CCCCCCCCCC(=O)OCCOP(=O)([O-])OC(Cn1cncn1)(Cn1cncn1)c1ccc(F)cc1F.[Na+]")
96.7
>>> assay_value("CCCCCCCCCOCCOP(=O)([O-])OC(Cn1cncn1)(Cn1cncn1)c1ccc(F)cc1F.[Na+]")
95.0
>>> assay_value("CCCCCCCCCOP(=O)([O-])OC(Cn1cncn1)(Cn1cncn1)c1ccc(F)cc1F.[Na+]")
99.2
>>> assay_value("C[N+](C)(C)CCOP(=O)([O-])OC(Cn1cncn1)(Cn1cncn1)c1ccc(F)cc1F")
99.4

###

assay: Chemical stability in pharmaceutical solvents (weight % remaining in solution, LCMS); format: physicochemical; details: H2O/Kleptose HPB (60/40), 14 days
MEASURED_PARAMETER: weight percentage that remained in solution (% w/w)

>>> assay_value("CCCCCCCCCOCCOP(=O)([O-])OC(Cn1cncn1)(Cn1cncn1)c1ccc(F)cc1F.[Na+]")
95.2
>>> assay_value("C[N+](C)(C)CCOP(=O)([O-])OC(Cn1cncn1)(Cn1cncn1)c1ccc(F)cc1F")
99.1
>>> assay_value("CCCCCCCCCOP(=O)([O-])OC(Cn1cncn1)(Cn1cncn1)c1ccc(F)cc1F.[Na+]")
100.0
>>> assay_value("CCCCCCCCCC(=O)OCCOP(=O)([O-])OC(Cn1cncn1)(Cn1cncn1)c1ccc(F)cc1F.[Na+]")
98.0
>>> assay_value("CCCCCCCCCC(=O)OCC(COP(=O)([O-])OC(Cn1cncn1)(Cn1cncn1)c1ccc(F)cc1F)OC(=O)CCCCCCCCC.[Na+] (centres unmarked)")
87.7

###

test: Chemical stability in pharmaceutical solvents (weight % remaining in solution, LCMS); type: physicochemical; conditions: H2O (pH = 10), 4 hours
MEASURED_PARAMETER: weight percentage that remained in solution (% w/w)

Look over these answered cases.
>>> assay_value("CCCCCCCCCOCCOP(=O)([O-])OC(Cn1cncn1)(Cn1cncn1)c1ccc(F)cc1F.[Na+] [Example 3]")
94.8
>>> assay_value("CCCCCCCCCOP(=O)([O-])OC(Cn1cncn1)(Cn1cncn1)c1ccc(F)cc1F.[Na+] [Example 14]")
99.3
>>> assay_value("C[N+](C)(C)CCOP(=O)([O-])OC(Cn1cncn1)(Cn1cncn1)c1ccc(F)cc1F [Example 1]")
99.8

(I) CCCCCCCCCC(=O)OCCOP(=O)([O-])OC(Cn1cncn1)(Cn1cncn1)c1ccc(F)cc1F.[Na+] [Example 2]
(II) CCCCCCCCCC(=O)OCC(COP(=O)([O-])OC(Cn1cncn1)(Cn1cncn1)c1ccc(F)cc1F)OC(=O)CCCCCCCCC.[Na+] (centres unmarked) [Example 4]
Ask: Sorting by weight percentage that remained in solution in descending order, would I or II appear first? Lab note: record the label of whichever item you select.
Result: I
(I: 94.6 % w/w, II: 45.5 % w/w)

###

test: Solubility of fosfluconazole derivatives in pharmaceutical solvents (Table 2); format: physicochemical; details: water (pH 10), aqueous buffer, thermodynamic from solid; H2O (pH = 10), 25° C.
MEASURED_PARAMETER: solubility at 24 h

>>> assay_value("CCOP(=O)(O[C@H]1CC[C@@]2(C)C(=CC[C@H]3[C@@H]4CC[C@H]([C@H](C)CCCC(C)C)[C@@]4(C)CC[C@@H]32)C1)OC(Cn1cncn1)(Cn1cncn1)c1ccc(F)cc1F (stereo partly drawn) [Example 5]")
"< 1 µg/mL"

Ask: Requested read-out: solubility at 24 h. Entry: CCCCCCCCCC(=O)OCC(COP(=O)([O-])OC(Cn1cncn1)(Cn1cncn1)c1ccc(F)cc1F)OC(=O)CCCCCCCCC.[Na+] (stereo not drawn) [Example 4]
Result: > 10000 µg/mL

Ask: Requested read-out: solubility at 24 h. Entry: CCCCCCCCCOCCOP(=O)([O-])OC(Cn1cncn1)(Cn1cncn1)c1ccc(F)cc1F.[Na+] [Example 3]
Result: > 10000 µg/mL

Ask: Requested read-out: solubility at 24 h. Entry: CCCCCCCCCC(=O)OCCOP(=O)([O-])OC(Cn1cncn1)(Cn1cncn1)c1ccc(F)cc1F.[Na+] [Example 2]
Result: > 10000 µg/mL

Ask: Requested read-out: solubility at 24 h. Entry: CCCCCCCCCOP(=O)([O-])OC(Cn1cncn1)(Cn1cncn1)c1ccc(F)cc1F.[Na+] [Example 14]
Result: > 10000 µg/mL

Ask: Requested read-out: solubility at 24 h. Entry: C[N+](C)(C)CCOP(=O)([O-])OC(Cn1cncn1)(Cn1cncn1)c1ccc(F)cc1F [Example 1]
Result: 7500 µg/mL

###

experiment: Solubility of fosfluconazole derivatives in pharmaceutical solvents (Table 2); type: physicochemical; conditions: water (pH 2), aqueous buffer, thermodynamic from solid; H2O (pH = 2), 25° C.
Collected solubility at 24 h values appear next to each entry.

>>> assay_value("C[N+](C)(C)CCOP(=O)([O-])OC(Cn1cncn1)(Cn1cncn1)c1ccc(F)cc1F [Example 1]")
"> 10000 µg/mL"
>>> assay_value("CCCCCCCCCC(=O)OCC(COP(=O)([O-])OC(Cn1cncn1)(Cn1cncn1)c1ccc(F)cc1F)OC(=O)CCCCCCCCC.[Na+] (stereo not drawn) [Example 4]")
"< 1000 µg/mL"

For the next question, use this compound.
Ask: Requested read-out: solubility at 24 h. Entry: CCCCCCCCCOCCOP(=O)([O-])OC(Cn1cncn1)(Cn1cncn1)c1ccc(F)cc1F.[Na+] [Example 3]
Result: > 10000 µg/mL
